- Test Target: P2X purinoceptor 7 (Homo sapiens)
- Sequence (Q99572 whole entry): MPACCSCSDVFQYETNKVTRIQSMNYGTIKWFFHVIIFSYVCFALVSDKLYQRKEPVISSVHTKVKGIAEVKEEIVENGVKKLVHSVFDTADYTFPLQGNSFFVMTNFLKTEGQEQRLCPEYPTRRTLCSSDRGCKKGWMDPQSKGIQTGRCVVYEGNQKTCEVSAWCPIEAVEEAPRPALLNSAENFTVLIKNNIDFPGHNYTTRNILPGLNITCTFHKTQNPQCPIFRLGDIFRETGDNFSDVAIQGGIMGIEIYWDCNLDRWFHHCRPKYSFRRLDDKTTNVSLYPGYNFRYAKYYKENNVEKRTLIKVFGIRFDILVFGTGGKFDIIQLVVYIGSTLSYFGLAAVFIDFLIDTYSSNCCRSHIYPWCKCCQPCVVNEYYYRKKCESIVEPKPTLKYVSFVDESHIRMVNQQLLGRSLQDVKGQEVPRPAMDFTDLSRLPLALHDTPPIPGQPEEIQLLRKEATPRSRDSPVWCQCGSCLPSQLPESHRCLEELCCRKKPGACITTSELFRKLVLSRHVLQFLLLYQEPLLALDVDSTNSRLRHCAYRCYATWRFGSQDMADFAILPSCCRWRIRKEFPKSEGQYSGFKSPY
- Assay Summary: Antagonist activity at human P2X7 receptor expressed in HEK293 cells assessed as inhibition of BzATP-induced ethidium bromide uptake after 2 hrs by fluorescence analysis
- Assay type: functional, cell-based

{"columns": ["Molecule", "IC50 (nM)"],
 "data": [
  ["O=C(CCc1ccccc1)NNc1c(Cl)cncc1Cl", 650],
  ["O=C(CCCCc1ccccc1)NNc1c(Cl)cncc1Cl", 1200],
  ["O=C(CCCC1CCCCC1)NNc1c(Cl)cncc1Cl", 360],
  ["O=C(CCC1CCCC1)NNc1c(Cl)cncc1Cl", 380],
  ["O=C(Cc1ccc(Cl)cc1Cl)NNc1c(Cl)cncc1Cl", 2500],
  ["O=C(NNc1c(Cl)cncc1Cl)C12CC3CC(CC1C3)C2", 1400],
  ["O=C(CC1CC2CCC1C2)NNc1c(Cl)cncc1Cl (configuration not stated)", 210],
  ["O=C(Cc1ccc(Cl)cc1)NNc1c(Cl)cncc1Cl", 620],
  ["COc1ccc(CCC(=O)NNc2c(Cl)cncc2Cl)cc1", 1500],
  ["O=C(NNc1c(Cl)cncc1Cl)C1C2CC3CC(C2)C(Br)C1C3 (configuration not stated)", 4.9],
  ["O=C(CC1C2CC3CC(C2)CC1C3)NNc1c(Cl)cncc1Cl (configuration not stated)", 340],
  ["O=C(CCc1ccc(F)cc1)NNc1c(Cl)cncc1Cl", 900]
]}
